These entries and their values trace back to PubChem BioAssay AID1851.

Molecular target: Cytochrome P450 3A4 (Homo sapiens) (UniProt P08684)
Sequence (P08684 whole entry, looked up): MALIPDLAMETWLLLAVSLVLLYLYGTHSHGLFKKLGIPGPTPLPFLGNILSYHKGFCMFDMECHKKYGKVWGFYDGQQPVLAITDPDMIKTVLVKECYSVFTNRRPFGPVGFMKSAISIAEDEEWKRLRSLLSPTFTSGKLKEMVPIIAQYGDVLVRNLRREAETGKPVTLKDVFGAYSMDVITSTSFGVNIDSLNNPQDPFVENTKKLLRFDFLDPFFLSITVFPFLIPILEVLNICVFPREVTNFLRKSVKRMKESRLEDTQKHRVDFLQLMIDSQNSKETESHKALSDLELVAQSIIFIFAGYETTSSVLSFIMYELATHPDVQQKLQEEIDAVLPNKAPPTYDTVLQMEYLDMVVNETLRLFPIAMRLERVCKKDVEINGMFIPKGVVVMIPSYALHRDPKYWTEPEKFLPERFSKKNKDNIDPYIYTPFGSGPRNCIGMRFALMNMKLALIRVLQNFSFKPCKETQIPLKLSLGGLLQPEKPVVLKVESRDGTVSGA
Experiment: Cytochrome panel assay with activity outcomes
Settings: recombinant CYP, pro-luciferin dealkylation, luminescence, p450-cyp3a4; series mostly up to 57.1 µM
Screen size: about 16,000 compounds; about 5,100 (32%) were called active. Not shown: some 25% with an inconclusive outcome. The list shows a part of the results.
readoutKind: AC50

Examples with their reported AC50 follow.
COC(=O)C1C(=O)C2=C(CC1C)NC(=O)CC2c1cccc(C)c1 (stereo unspecified); 14.1 µM (active)
C=C[C@@]1(C)CC(=O)[C@@]2(O)[C@@]3(C)[C@@H](O)CCC(C)(C)[C@@H]3[C@H](OC(=O)CCN(C)C)[C@H](OC(C)=O)[C@@]2(C)O1; 2.51 µM (active)
COc1ncc2nc(-c3ccc(F)cc3)c(=O)n(C)c2n1; 20 µM (active)
COc1ccc(-c2nc3cnc(OC)nc3n(C)c2=O)cc1; 25.1 µM (active)
COc1ncc2nc(-c3ccccc3)c(=O)n(C)c2n1; inactive

Prompt: Quickly give me recorded AC50 for `COc1ncc2nc(-c3ccc(Cl)cc3)c(=O)n(C)c2n1`
Response: 25.1 µM (active)

Prompt: Hello, please tell me recorded AC50 for this one: `Cn1c(=O)c(-c2ccc(Cl)cc2)nc2cnc(OCc3ccccc3)nc21`
Response: inactive

Prompt: Give reported AC50 value for `CCOC(=O)c1c(C)[nH]c(C)c1C(=O)COC(=O)c1cccc(S(=O)(=O)N(CC)CC)c1`
Response: 0.316 µM (active)

Prompt: In one line, give reported AC50 of the entry `CN(C)c1ncc2nc(-c3ccc(F)cc3)c(=O)n(C)c2n1` .
Response: inactive

Prompt: Provide one value: measured AC50 of `COc1ncc2nc(-c3ccc(Cl)cc3)c(=O)n(-c3ccccc3)c2n1`
Response: inactive

Prompt: Supply recorded AC50 for `C[C@@H](CC(=O)O)[C@@H](N)C(=O)O` here.
Response: inactive

---

Target: Cytochrome P450 3A4 (Homo sapiens)
Assay: Cytochrome panel assay with activity outcomes
Details: recombinant CYP, pro-luciferin dealkylation, luminescence, p450-cyp3a4; series mostly up to 57.1 µM
The campaign covered roughly 16,000 compounds. About 5,100 (32%) were called active. About 25% were inconclusive and are not listed. The list shows a part of the results.
readoutKind: AC50

Below: 5 compounds and their reported AC50.
COC(=O)c1nc(NC(=O)c2ccccc2)n[nH]1; inactive
O=C(/C=C/c1ccc(Cl)cc1)NCCSc1ccccc1; inactive
CCOc1ccc(/C=C/C2=Cc3c(sc(NC(=O)CSc4n[nH]c(N)n4)c3C#N)C(C)(C)C2)cc1; 15.8 µM (active)
Cc1ccc(/C=C/C2=Cc3c(sc(NC(=O)CSc4n[nH]c(N)n4)c3C#N)C(C)(C)C2)o1; 14.1 µM (active)
O=C(O)c1ccc(CSc2nc3ccccc3o2)cc1; inactive

Prompt: // fetch AC50 for `O=C(c1cc(O)c(O)c([N+](=O)[O-])c1)c1ccccc1F` ; system: Cytochrome P450 3A4 (Homo sapiens)
Response: 20 µM (active)

Prompt: Identify measured AC50 obtained with Cytochrome P450 3A4 (Homo sapiens) for `Cc1ccccc1OC/C(O)=C(\C#N)c1nc2ccccc2[nH]1` .
Response: inactive

Prompt: Provide AC50, tested on Cytochrome P450 3A4 (Homo sapiens), for `O=C(CSc1nc2ccccc2o1)N1c2ccccc2Sc2ccc(Cl)cc21` .
Response: 8.91 µM (active)

Prompt: Consider the compound Cc1nc(SC(C(=O)c2ccccc2)c2ccccc2)n[nH]1 (stereo unspecified) tested on Cytochrome P450 3A4 (Homo sapiens); state its AC50.
Response: 7.08 µM (active)

Prompt: Please report AC50 with Cytochrome P450 3A4 (Homo sapiens) for item `COc1ccc(OCc2nnc(SCC(=O)N3c4ccccc4Sc4ccc(Cl)cc43)o2)cc1` .
Response: 3.55 µM (active)

Prompt: Identify measured AC50 obtained with Cytochrome P450 3A4 (Homo sapiens) for `COc1cccc(OC)c1/C(O)=C(\C#N)c1nc2ccccc2[nH]1` .
Response: 2 µM (active)
